Reference source: patent US20100298141A1

Tested on: spanishneedles
METHOD: Test F preemergence test
Assay type: in vivo, Bidens bipinnata
MEASUREMENT CONTEXT: 125 g ai/ha, preemergence, scale 0 to 100

[
  {
    "COMPOUND": "CC(c1c(C(F)(F)F)nn(C)c1OCC(F)(F)F)S(=O)(=O)c1cccc[n+]1[O-] (racemic)",
    "Spanishneedles plant response rating": 65
  },
  {
    "COMPOUND": "Cc1cc[n+]([O-])c(S(=O)(=O)C(Cl)c2c(C(F)(F)F)nn(C)c2OCC(F)(F)F)c1 (racemic)",
    "Spanishneedles plant response rating": 0
  },
  {
    "COMPOUND": "Cn1nc(C(F)(F)F)c(C[S+]([O-])c2ccc(Cl)c[n+]2[O-])c1OCC(F)F (stereo not shown)",
    "Spanishneedles plant response rating": 100
  },
  {
    "COMPOUND": "CCn1nc(C(F)(F)F)c(CS(=O)(=O)c2cc(C)cc[n+]2[O-])c1OCC(F)(F)F",
    "Spanishneedles plant response rating": 60
  }
]
